Data origin: patent US20200247894A1

Molecular target: T1, Human IL2Rγ extracellular domain expressed with a C-terminal mouse IgG2a Fc tag (human)
T1 construct: whole entry is the Fc-fused construct; also called hIL-2Rg-mFc
T1 chain: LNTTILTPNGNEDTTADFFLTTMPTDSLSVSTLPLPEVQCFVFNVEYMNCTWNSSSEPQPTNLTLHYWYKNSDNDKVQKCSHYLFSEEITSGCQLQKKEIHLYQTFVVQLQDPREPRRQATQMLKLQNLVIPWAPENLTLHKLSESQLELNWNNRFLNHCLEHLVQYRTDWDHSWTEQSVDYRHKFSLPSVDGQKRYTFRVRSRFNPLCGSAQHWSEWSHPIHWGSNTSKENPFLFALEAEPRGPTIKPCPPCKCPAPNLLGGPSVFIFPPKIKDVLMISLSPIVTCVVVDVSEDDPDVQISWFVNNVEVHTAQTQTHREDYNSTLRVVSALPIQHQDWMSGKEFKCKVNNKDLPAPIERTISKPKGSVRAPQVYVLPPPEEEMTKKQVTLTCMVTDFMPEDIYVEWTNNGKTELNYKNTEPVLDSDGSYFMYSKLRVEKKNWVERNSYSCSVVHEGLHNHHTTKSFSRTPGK
Assay: SPR Biacore 4000, anti-hFc-captured mAb, 25 C

BINDER	kon / M⁻¹ s⁻¹
H4H13538P (antibody, human IgG4 S228P, kappa, V domains shown, fully human anti-IL2Rgamma mAb, human IgG4 Fc) VH: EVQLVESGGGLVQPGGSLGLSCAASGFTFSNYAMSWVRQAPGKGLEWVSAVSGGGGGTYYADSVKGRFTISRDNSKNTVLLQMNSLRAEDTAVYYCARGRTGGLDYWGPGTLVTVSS VL: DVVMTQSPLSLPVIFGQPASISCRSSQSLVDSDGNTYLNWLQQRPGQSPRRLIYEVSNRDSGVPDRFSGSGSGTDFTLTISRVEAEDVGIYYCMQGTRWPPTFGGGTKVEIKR	117000
H4H12871P (antibody, human IgG4 S228P, kappa, V domains shown, fully human anti-IL2Rgamma mAb, human IgG4 Fc; also called REGN9434) VH: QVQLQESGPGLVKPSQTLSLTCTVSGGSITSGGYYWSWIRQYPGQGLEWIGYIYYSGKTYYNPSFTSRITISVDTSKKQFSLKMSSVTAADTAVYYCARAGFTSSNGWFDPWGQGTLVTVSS VL: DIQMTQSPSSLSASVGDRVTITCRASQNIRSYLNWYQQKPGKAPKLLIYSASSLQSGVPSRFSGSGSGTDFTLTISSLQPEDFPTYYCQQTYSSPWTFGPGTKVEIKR	363000
H4H12874P (antibody, human IgG4 S228P, kappa, V domains shown, fully human anti-IL2Rgamma mAb, human IgG4 Fc) VH: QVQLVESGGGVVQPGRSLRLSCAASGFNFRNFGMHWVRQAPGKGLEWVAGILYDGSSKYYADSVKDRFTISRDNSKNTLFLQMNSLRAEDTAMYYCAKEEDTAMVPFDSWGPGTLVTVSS VL: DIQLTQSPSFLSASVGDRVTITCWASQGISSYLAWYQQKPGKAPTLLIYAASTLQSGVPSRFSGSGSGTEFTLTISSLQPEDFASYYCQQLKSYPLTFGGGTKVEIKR	20000
